- System: L1210 leukemia ip in BDF1 mice, survival T/C
- Measurement Notes: NCI In Vivo Anticancer Drug Screen. Data for tumor model L1210 Leukemia (intraperitoneal) in B6D2F1 (BDF1) mice
- Test Context: endpoint: mean survival time; dose: 200.0 mg/kg/injection; schedule: Q01DX009 (ip); vehicle: saline with Tween-80; higher = longer survival
Inconclusive results and toxic doses are left out.
# Lookup of reported T/C keyed by entry

Sample answers from the record:
CC1=CC(=O)C(C)(C)C=C1 ... 101 % of control
O=C(Nc1cccc(O)c1)Oc1cccc(Cl)c1 ... 102 % of control
CN(C)CSc1nc2ccccc2s1 ... 93 % of control
Cc1cccc(C(C)(C)C#N)c1 ... 90 % of control
C/C(=C1/c2ccccc2-c2n[nH]c(C)c21)S(=O)(=O)O ... 88 % of control

Case `Cc1cc([N+](=O)[O-])ccn1` , L1210 leukemia ip in BDF1 mice, survival T/C, T/C recorded as 93 % of control

Case `CSC(=O)Oc1ccc([N+](=O)[O-])cc1` , L1210 leukemia ip in BDF1 mice, survival T/C, T/C recorded as 96 % of control

Case `CCCCC#C/C=C/CCCC` , L1210 leukemia ip in BDF1 mice, survival T/C, T/C recorded as 100 % of control

Case `O=C(O)Cn1c(C(F)(F)F)nc2nc(Cl)c(Cl)nc21` , L1210 leukemia ip in BDF1 mice, survival T/C, T/C recorded as 100 % of control

Case `NC(N)=NC1=NC(=O)CS1` , L1210 leukemia ip in BDF1 mice, survival T/C, T/C recorded as 103 % of control

Case `CCC(=O)Nc1cc(C(F)(F)F)ccc1Cl` , L1210 leukemia ip in BDF1 mice, survival T/C, T/C recorded as 96 % of control

Case `Cc1cc2c3ccccc3[nH]c(=O)n2n1` , L1210 leukemia ip in BDF1 mice, survival T/C, T/C recorded as 95 % of control

Case CCOC(=O)CN=CC1CCC=CO1 (centres undefined) , L1210 leukemia ip in BDF1 mice, survival T/C, T/C recorded as 103 % of control

Case Cc1ccc(NC(=O)C2CCC(C)(C(=O)O)C2(C)C)cc1 (centres undefined) , L1210 leukemia ip in BDF1 mice, survival T/C, T/C recorded as 93 % of control
